Biological target: fluorescently labeled WTp53DBD (MST assay) (UniProt P04637)
Sequence (P04637 94-312): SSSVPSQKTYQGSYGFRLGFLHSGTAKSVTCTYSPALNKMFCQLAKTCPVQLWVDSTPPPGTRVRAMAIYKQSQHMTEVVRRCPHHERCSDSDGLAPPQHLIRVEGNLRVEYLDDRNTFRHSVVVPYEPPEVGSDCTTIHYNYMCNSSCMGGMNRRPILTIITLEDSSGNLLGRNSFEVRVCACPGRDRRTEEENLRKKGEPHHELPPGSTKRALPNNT
Assay: MST; FIG. 3D; myristoylated
MEASURED_ENDPOINT: Kd (µM)
# unit: µM | format: bare number

I'd like to know its Kd. The substance in question is pCAP-402 myr-HSTPHPD
30
